assayed-system: 5-hydroxytryptamine receptor 2A (Homo sapiens, UniProt P28223)
Sequence (P28223 whole entry): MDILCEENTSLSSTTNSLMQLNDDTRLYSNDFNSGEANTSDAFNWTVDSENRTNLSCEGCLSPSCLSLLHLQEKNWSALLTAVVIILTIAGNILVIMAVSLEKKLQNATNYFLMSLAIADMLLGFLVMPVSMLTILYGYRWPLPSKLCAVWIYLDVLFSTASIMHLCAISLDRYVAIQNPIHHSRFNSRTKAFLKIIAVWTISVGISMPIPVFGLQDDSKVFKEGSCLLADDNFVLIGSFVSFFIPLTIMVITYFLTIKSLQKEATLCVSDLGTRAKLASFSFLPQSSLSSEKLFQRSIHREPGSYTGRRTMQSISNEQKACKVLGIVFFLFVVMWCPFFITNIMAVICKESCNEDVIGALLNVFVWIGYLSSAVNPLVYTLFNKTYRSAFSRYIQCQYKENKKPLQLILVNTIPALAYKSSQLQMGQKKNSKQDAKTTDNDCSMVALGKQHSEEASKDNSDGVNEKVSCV
experimental-readout: Ki

Q. Value lookup for Ki; key = COCCCN1CCC(NC(=O)c2cc(Cl)c(N)c3c2OCC3)CC1
A. > 10 µM

---

assayed-system: 5-hydroxytryptamine receptor 6 (Homo sapiens)
Sequence (P50406 whole entry): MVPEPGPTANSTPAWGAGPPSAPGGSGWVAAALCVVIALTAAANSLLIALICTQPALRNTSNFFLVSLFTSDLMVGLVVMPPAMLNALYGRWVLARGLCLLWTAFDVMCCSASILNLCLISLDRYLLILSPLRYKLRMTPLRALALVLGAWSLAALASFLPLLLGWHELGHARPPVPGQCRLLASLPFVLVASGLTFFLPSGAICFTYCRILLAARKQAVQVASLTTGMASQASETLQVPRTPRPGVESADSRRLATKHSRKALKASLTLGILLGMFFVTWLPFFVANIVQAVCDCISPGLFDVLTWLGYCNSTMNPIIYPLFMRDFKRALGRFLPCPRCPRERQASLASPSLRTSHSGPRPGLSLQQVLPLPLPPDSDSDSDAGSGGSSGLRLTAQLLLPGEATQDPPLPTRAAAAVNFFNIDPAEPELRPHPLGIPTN
pKi: −log10 of the molar value.
experimental-readout: pKi

Q. Could you share what pKi was measured for COCCCN1CCC(NC(=O)c2cc(Cl)c(N)c3c2OCC3)CC1 , tested on 5-hydroxytryptamine receptor 6 (Homo sapiens)?
A. < 5.00

---

assayed-system: Mu-type opioid receptor (Homo sapiens)
Sequence (P35372 whole entry): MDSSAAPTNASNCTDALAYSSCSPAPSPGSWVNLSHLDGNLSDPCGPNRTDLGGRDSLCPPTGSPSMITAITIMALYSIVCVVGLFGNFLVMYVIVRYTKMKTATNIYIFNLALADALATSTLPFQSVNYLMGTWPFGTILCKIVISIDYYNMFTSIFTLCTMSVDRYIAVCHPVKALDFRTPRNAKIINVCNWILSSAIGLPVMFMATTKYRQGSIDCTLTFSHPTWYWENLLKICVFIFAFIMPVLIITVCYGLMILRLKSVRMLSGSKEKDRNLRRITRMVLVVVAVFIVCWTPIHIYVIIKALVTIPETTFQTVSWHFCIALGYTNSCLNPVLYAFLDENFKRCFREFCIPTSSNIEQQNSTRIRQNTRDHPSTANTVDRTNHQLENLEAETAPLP
pKi: −log10 of the molar value.
experimental-readout: pKi

Q. Look up pKi for this compound: COCCCN1CCC(NC(=O)c2cc(Cl)c(N)c3c2OCC3)CC1
A. < 5.00
